Entries and their measured Atrial EC25 follow.
Test system: Porcine atria myofibrils (atrial myosin ATPase)
assayNotes: Myofibril ATPase assay, porcine atria myofibrils
Type: biochemical
conditionSet: porcine atria myofibrils; Y75 value (75% activity relative to no compound)
Expressed in µM, but write only the number.

// below: answered compounds
Cc1c([C@H](C)C(=O)N[C@@H](C)c2ccc(F)cc2F)c(=O)[nH]c2ccnc(Cl)c12 (single isomer, unassigned)    0.14
Cc1nccc2[nH]c(=O)c(CC(=O)N[C@H](CCO)c3ccc(F)cc3F)c(C)c12 (single isomer, unassigned)    100.00
Cc1nccc2[nH]c(=O)c(CC(=O)N[C@@H]3COc4cccnc43)c(C)c12 (single isomer, unassigned)    100.00
COc1nccc2[nH]c(=O)c(CC(=O)N[C@@H](C)c3ccc(F)cc3F)c(C(F)(F)F)c12    100.00
Cc1nccc2[nH]c(=O)c(CC(=O)N[C@@H](C)c3ncccc3F)c(C)c12 (single isomer, unassigned)    100.00

Please examine the following record next.
In: May I ask what Atrial EC25 has been recorded for Cc1c([C@H](C)C(=O)N[C@@H](C)c2ccc(F)cc2F)c(=O)[nH]c2ccnc(F)c12 (single isomer, unassigned) ?
Out: 0.27

---

Tested on: Rabbit Psoas myofibrils (skeletal myosin ATPase)
assayNotes: Myofibril ATPase assay, rabbit psoas (skeletal) myofibrils
Format: biochemical
conditionSet: Y75 value (no ‡ mark); rabbit psoas myofibrils
Each item that follows carries a reported Skeletal EC25.
Your answer is read as µM, so omit the unit and give the number.

Solved entries (count: 3):
C[C@H](NC(=O)Cc1cc2ccccc2[nH]c1=O)c1ccc(F)cc1F    0.19
Cc1c(CC(=O)N[C@H](C)c2cnc(C#N)cn2)c(=O)[nH]c2ccc(F)cc12    0.37
Cc1cc(C#N)cnc1[C@@H](C)NC(=O)Cc1c(O)c2c(C)c(F)ccc2[nH]c1=O    6.95

Turning now to a further record.
In: Which Skeletal EC25 value is on record for O=C(Cc1cc2cc(F)ccc2[nH]c1=O)N1CC[C@@H]2C[C@H]1c1ccccc12 (single isomer, unassigned) ?
Out: 1.29

---

As shown below, each of these compounds has a reported Ventricular EC25 value.
targetEntity: Porcine ventricle myofibrils (ventricular myosin ATPase) (Sus scrofa, UniProt P79293)
Construct: Myofibrils from porcine cardiac muscle was isolated from the left ventricle of Yucatan minipigs; tissue Exemplar Genetics; host or cells: left ventricle of Yucatan minipigs, myofibrils prepared in house
Sequence (P79293 whole entry): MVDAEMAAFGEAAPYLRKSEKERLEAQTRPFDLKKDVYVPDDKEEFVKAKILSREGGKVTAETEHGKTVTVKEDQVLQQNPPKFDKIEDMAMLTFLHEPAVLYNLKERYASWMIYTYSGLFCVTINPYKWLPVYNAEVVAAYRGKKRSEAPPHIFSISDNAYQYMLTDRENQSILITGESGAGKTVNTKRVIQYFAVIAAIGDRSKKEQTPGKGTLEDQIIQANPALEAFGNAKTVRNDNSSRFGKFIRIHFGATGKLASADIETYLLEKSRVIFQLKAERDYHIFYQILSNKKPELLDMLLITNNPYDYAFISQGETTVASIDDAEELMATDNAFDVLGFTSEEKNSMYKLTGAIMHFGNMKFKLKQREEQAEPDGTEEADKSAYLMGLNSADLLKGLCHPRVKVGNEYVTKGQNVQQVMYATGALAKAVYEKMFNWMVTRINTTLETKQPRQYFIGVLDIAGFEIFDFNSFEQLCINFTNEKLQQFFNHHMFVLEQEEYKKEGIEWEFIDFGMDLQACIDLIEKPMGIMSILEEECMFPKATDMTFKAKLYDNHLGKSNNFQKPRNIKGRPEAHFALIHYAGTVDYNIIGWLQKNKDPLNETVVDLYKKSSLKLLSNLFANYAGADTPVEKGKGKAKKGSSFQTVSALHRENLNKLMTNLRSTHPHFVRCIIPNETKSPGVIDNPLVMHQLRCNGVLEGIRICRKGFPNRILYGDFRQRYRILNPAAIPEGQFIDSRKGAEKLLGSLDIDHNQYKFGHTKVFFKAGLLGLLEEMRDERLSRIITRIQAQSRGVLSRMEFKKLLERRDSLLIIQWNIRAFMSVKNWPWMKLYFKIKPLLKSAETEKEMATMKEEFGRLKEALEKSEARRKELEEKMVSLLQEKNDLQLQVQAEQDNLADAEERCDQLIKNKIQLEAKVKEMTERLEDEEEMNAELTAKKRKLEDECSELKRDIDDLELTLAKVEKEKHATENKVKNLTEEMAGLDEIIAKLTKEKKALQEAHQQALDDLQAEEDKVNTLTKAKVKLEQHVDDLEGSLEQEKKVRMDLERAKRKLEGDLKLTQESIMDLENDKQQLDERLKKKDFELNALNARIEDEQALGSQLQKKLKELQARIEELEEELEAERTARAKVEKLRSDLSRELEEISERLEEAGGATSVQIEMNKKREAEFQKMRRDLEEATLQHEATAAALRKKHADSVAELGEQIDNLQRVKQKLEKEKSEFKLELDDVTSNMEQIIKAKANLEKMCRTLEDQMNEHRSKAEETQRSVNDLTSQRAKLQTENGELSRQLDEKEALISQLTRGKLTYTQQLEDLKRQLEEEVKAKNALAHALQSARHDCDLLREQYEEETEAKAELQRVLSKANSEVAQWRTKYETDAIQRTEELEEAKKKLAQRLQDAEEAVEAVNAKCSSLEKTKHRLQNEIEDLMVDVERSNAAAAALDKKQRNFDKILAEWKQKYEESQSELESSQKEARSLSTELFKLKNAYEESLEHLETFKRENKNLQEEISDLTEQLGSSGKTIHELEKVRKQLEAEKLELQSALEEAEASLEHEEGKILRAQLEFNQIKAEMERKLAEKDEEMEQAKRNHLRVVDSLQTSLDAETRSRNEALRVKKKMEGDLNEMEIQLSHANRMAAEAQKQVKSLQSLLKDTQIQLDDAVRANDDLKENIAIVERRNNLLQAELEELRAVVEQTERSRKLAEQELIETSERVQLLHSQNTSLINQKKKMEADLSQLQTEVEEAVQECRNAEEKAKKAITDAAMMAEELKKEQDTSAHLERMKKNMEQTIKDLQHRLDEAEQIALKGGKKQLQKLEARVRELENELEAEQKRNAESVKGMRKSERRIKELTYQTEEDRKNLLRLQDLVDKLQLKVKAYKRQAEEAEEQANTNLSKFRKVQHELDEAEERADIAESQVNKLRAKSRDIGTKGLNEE
assayNotes: Myofibril ATPase assay, porcine ventricle myofibrils
Type: biochemical, porcine (Yucatan minipigs)
conditionSet: porcine ventricle myofibrils; Y75 value
Provide only the numeric value, understood in µM.

Sample records with Ventricular EC25:
Cc1nccc2[nH]c(=O)c(CC(=O)N[C@@H](C)c3ccc(C#N)cn3)c(C)c12 (single isomer, unassigned)    23.41
Cc1c(CC(=O)N[C@@H](CO)c2ccc(C#N)cc2F)c(=O)[nH]c2ccnc(C(F)(F)F)c12 (single isomer, unassigned)    2.46
Cc1nccc2[nH]c(=O)c(CC(=O)N[C@H](C)c3ncc(F)cc3F)c(C)c12 (single isomer, unassigned)    100.00

Here is the next item to consider.
In: Tell me the measured Ventricular EC25 of Cc1nccc2[nH]c(=O)c(CC(=O)N[C@H]3COc4cccnc43)c(C)c12 (single isomer, unassigned) , please.
Out: 100.00

---

Tested on: Rabbit Psoas myofibrils (skeletal myosin ATPase)
assayNotes: Myofibril ATPase assay, rabbit psoas (skeletal) myofibrils
Type: biochemical
conditionSet: ‡ Y125 value, not a Y75 value (125% activity relative to no compound); rabbit psoas myofibrils
Known Skeletal EC25 of a selection of molecules

Example entries begin here.
Cc1c(C2(C(=O)NC(C)c3cccc(C#N)n3)CC2)c(=O)[nH]c2ccc(F)cc12 (single isomer, unassigned)    17.17‡ μM
Cc1c(C(F)(F)C(=O)N[C@@H](C)c2nccc(C#N)n2)c(=O)[nH]c2ccc(F)cc12 (single isomer, unassigned)    93.23‡ μM
C[C@@H](NC(=O)C1(c2cc3cc(F)ccc3[nH]c2=O)CC1)c1cccc(C#N)n1 (single isomer, unassigned)    37.90‡ μM
Cc1c(C2(C(=O)N[C@@H](C)c3cc(C#N)ccn3)CC2)c(=O)[nH]c2ccc(F)cc12 (single isomer, unassigned)    100.00‡ μM
Cc1c(C2(C(=O)N[C@H](C)c3ncc(C#N)cc3F)CC2)c(=O)[nH]c2ccc(F)c(C#N)c12 (single isomer, unassigned)    100.00‡ μM

Then this molecule:
In: Which Skeletal EC25 is reported for this molecule? CC(NC(=O)C1(c2cc3c(F)c(F)ccc3[nH]c2=O)CC1)c1cccc(C#N)n1 (single isomer, unassigned)
Out: 26.03‡ μM

---

Atrial EC25 for assorted molecules
Test system: Porcine atria myofibrils (atrial myosin ATPase)
assayNotes: Myofibril ATPase assay, porcine atria myofibrils
Assay type: biochemical
conditionSet: porcine atria myofibrils; Y75 value (75% activity relative to no compound)
Number plus unit, in that order.

Below, each entry is followed by its recorded Atrial EC25 result.
Cc1c(CC(=O)N[C@H](CO)c2ccc(F)cc2F)c(=O)[nH]c2ccc(C(F)(F)F)nc12 [compound 216]    100.00 µM
Cc1nccc2[nH]c(=O)c(CC(=O)N[C@@H](C)c3ccc(C#N)cc3F)c(Cl)c12 [compound 152]    0.05 µM
Cc1nccc2[nH]c(=O)c(CC(=O)N[C@@H](C)c3c(F)cc(F)cc3F)c(C)c12 [compound 500]    43 µM
Cc1c(CC(=O)N[C@H](C)c2ncc(C#N)cc2F)c(=O)[nH]c2ccnc(C(F)(F)F)c12 (single isomer, unassigned) [compound 226]    7.58 µM

In: // Atrial EC25 lookup, key: C[C@H](NC(=O)Cc1cc2nc(Cl)ncc2[nH]c1=O)c1ccc(F)cc1F [compound 390]
Out: 100.00 µM

In: Could you do the same for Cc1c(CC(=O)N[C@H](CO)c2ccc(C#N)cc2F)c(=O)[nH]c2ccnc(OC3CC3)c12 [compound 203] , please?
Out: 100.00 µM

In: Follow-up entry: Cc1cc(F)cc(F)c1[C@@H](C)NC(=O)Cc1c(C)c2c(C)nccc2[nH]c1=O (single isomer, unassigned) [compound 404]
Out: 100.00 µM

In: // repeat for COc1ccccc1[C@H](C)NC(=O)Cc1c(C)c2c(C)nccc2[nH]c1=O (single isomer, unassigned) [compound 319] and report
Out: 100.00 µM

In: And for Cc1c(CC(=O)N[C@@H](CO)c2ccc(C#N)cc2F)c(=O)[nH]c2ccc(C#N)nc12 [compound 221] ?
Out: 1.12 µM

---

// Atrial EC25 lookup, one value per entry
Tested on: Porcine atria myofibrils (atrial myosin ATPase)
assayNotes: Myofibril ATPase assay, porcine atria myofibrils
Assay type: biochemical
conditionSet: Y75 value (no ‡ mark); porcine atria myofibrils
Write the answer as a number in nM, unit excluded.

Cc1c(C(F)(F)C(=O)N[C@H](C)c2ncc(C#N)cc2F)c(=O)[nH]c2cccc(C#N)c12 (single isomer, unassigned)    170

In: Any idea what its Atrial EC25 is? The molecule is C[C@H](NC(=O)C1(c2cc3c(F)c(F)ccc3[nH]c2=O)CC1)c1ccc(C#N)cn1 (single isomer, unassigned)
Out: 1900

In: Similarly, Cc1c(CC(=O)N[C@H](C)c2ncc(C#N)cn2)c(=O)[nH]c2cccc(C#N)c12 (single isomer, unassigned) ?
Out: 40

---

Let's look at some compounds and their measured Atrial EC25.
Test system: Porcine atria myofibrils (atrial myosin ATPase)
assayNotes: Myofibril ATPase assay, porcine atria myofibrils
Format: biochemical
conditionSet: Y75 value (no ‡ mark); porcine atria myofibrils
Provide only the numeric value, understood in nM.

Answered examples (2):
Cc1c(C(F)(F)C(=O)N[C@H](C)c2ncc(C#N)cn2)c(=O)[nH]c2ccc(F)c(C#N)c12 (single isomer, unassigned) [compound 2521]    320
Cc1c(CC(=O)N[C@@H](C)c2ncc(C#N)cn2)c(=O)[nH]c2ccc(F)c(C#N)c12 (single isomer, unassigned) [compound 2016]    120

In: Query: Atrial EC25; subject: Cc1c(CC(=O)N[C@@H](C)c2ccc(F)cc2F)c(=O)[nH]c2ccc(F)c(Cl)c12 [compound 85]
Out: 30

---

Test system: Porcine atria myofibrils (atrial myosin ATPase)
assayNotes: Myofibril ATPase assay, porcine atria myofibrils
Type: biochemical
conditionSet: Y75 value (no ‡ mark); porcine atria myofibrils
# key: entry, value: Atrial EC25
Please state the figure in µM; there is no need to write the unit.

Observe how each entry below is paired with its result.
Cc1c(CC(=O)N[C@@H](C)c2ncc(C#N)cn2)c(=O)[nH]c2cc(F)ccc12    18.0
C[C@@H](NC(=O)C(F)(F)c1cc2c(F)c(F)ccc2[nH]c1=O)c1nccc(C#N)n1 (single isomer, unassigned)    0.23
Cc1c(CC(=O)N[C@H](C)c2ncc(C#N)cn2)c(=O)[nH]c2cc(F)ccc12    6.01

In: # input compound: Cc1nc(C#N)cnc1[C@H](C)NC(=O)Cc1c(C)c2c(F)c(F)ccc2[nH]c1=O ; wanted: its Atrial EC25
Out: 0.08

In: Note, next up: Cc1c(C(F)(F)C(=O)N[C@H]2CCc3cc(C#N)cnc32)c(=O)[nH]c2ccc(F)cc12 (single isomer, unassigned)
Out: 0.79

In: Also check Cc1c(C(F)(F)C(=O)N[C@@H](C)c2ccc(C#N)nn2)c(=O)[nH]c2ccc(F)cc12 (single isomer, unassigned)
Out: 6.56

In: Note, next up: Cc1c(CC(=O)N[C@@H](C)c2ccc(F)cc2F)c(=O)[nH]c2ccc(F)c(C(F)(F)F)c12
Out: 0.07

In: Try O=C(Cc1cc2c(F)c(F)ccc2[nH]c1=O)N[C@H]1COc2ncccc21 (single isomer, unassigned) next.
Out: 100.00

In: Please do the same for COc1ccc2[nH]c(=O)c(CC(=O)N[C@@H](C)c3ccc(F)cc3F)cc2c1 as well.
Out: 100.00

In: Please give the result for Cc1c(CC(=O)N[C@@H](C)c2ccc(C#N)cn2)c(=O)[nH]c2ccc(F)cc12 too.
Out: 0.52

In: Subsequent entry: C[C@H](NC(=O)Cc1c(C2CC2)c2cc(F)ccc2[nH]c1=O)c1ccc(C#N)cn1
Out: 2.47

In: Now consider CC(NC(=O)C1(c2cc3c(F)c(F)ccc3[nH]c2=O)CC1)c1cccc(C#N)n1 (single isomer, unassigned) .
Out: 4.84

In: // next record Cc1c([C@H](C)C(=O)N[C@@H](C)c2ncc(C#N)cc2F)c(=O)[nH]c2ccc(F)c(F)c12 (single isomer, unassigned)
Out: 0.06

In: Then what about the compound C[C@H](NC(=O)[C@@H](C)c1c(C(F)(F)F)c2cc(F)ccc2[nH]c1=O)c1ccc(F)cc1F (single isomer, unassigned) [compound 57] ?
Out: 0.15
